experimentalTarget: PI3K-α (Homo sapiens, UniProt P42336)
Sequence (P42336 whole entry): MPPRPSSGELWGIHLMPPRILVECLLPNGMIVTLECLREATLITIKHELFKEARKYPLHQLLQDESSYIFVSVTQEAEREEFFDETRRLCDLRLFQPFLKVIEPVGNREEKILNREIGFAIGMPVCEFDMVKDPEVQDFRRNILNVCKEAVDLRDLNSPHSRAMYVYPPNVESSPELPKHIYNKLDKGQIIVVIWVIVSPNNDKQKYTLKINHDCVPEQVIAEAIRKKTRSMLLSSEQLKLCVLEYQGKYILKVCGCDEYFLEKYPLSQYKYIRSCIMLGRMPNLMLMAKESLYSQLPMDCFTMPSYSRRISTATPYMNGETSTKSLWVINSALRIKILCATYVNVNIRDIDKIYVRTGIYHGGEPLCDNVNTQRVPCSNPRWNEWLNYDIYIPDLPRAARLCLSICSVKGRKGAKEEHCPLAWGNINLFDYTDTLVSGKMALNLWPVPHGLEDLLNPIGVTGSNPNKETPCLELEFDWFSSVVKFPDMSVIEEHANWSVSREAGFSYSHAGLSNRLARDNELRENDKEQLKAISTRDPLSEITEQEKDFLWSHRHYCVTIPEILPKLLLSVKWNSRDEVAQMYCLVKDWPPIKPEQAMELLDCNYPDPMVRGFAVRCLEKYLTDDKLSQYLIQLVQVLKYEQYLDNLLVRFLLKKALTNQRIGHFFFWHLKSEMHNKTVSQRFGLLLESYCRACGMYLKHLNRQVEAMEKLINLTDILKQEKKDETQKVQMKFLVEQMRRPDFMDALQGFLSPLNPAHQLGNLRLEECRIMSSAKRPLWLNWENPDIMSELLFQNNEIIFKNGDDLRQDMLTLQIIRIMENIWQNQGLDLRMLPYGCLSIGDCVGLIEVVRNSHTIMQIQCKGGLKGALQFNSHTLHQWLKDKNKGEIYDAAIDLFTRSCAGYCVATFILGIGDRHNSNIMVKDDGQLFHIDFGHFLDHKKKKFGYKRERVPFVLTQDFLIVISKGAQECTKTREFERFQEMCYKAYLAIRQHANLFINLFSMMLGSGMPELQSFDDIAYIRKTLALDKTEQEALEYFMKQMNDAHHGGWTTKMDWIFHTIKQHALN
Sequence (P27986 2-724, further chain): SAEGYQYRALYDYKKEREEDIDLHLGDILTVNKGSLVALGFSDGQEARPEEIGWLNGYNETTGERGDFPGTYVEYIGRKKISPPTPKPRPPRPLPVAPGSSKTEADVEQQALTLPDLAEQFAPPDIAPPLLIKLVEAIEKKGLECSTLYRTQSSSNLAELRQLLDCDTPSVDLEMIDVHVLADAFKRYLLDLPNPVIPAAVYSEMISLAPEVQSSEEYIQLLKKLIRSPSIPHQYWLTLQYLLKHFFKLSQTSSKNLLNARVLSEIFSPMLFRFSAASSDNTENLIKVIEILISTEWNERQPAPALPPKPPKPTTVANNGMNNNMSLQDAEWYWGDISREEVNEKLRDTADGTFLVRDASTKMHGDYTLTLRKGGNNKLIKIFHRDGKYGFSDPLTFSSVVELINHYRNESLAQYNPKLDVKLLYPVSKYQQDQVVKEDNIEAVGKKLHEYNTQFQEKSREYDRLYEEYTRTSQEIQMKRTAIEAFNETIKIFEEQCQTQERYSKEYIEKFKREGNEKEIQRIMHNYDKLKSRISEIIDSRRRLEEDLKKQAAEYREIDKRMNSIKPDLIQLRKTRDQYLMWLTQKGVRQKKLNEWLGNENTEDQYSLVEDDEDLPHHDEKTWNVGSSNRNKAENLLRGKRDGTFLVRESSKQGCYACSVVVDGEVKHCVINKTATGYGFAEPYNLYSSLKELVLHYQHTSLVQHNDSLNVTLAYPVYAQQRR
assayNotes: Assay c): PI3K cellular potency (phospho-Akt T308 ELISA in BT474 cells)
conditionContext: BT474 cells, phospho-Akt T308, 2 h; Table 2; read-out: Assay c) PI3Kα Cell IC50
For each of the molecules below, state its pIC50.
// pIC50 is dimensionless: -log10 of concentration (M)

In: Give the measured pIC50 for CN(C)CCCOc1ccc(-c2ccc3ncc4c(c3c2)n([C@H]2CCCOC2)c(=O)n4C)cc1 [Example 9]
Out: 4.82

In: Entry CO[C@H]1C[C@@H](n2c(=O)n(C)c3cnc4cc(F)c(-c5ccc(OCCCN(C)C)cc5)cc4c32)C1 [Example 12] needs its pIC50 filled in; supply it.
Out: 4.69

In: Report measured pIC50; entry is CN(C)CCCOc1ccc(-c2ccc3ncc4c(c3c2)n([C@@H]2CCCOC2)c(=O)n4C)cc1 [Example 8]
Out: 6.51
